Provide the recorded koff for the entries that follow.
ASSAYED_TARGET: T1, cynomolgus soluble urokinase plasminogen activator receptor (cynomolgus suPAR) (cynomolgus, UniProt Q9GK78 23-303, limits assumed)
T1 construct: also called cynomolgus uPAR; cynoPLAUR-His
T1 sequence (Q9GK78 23-303 limits assumed): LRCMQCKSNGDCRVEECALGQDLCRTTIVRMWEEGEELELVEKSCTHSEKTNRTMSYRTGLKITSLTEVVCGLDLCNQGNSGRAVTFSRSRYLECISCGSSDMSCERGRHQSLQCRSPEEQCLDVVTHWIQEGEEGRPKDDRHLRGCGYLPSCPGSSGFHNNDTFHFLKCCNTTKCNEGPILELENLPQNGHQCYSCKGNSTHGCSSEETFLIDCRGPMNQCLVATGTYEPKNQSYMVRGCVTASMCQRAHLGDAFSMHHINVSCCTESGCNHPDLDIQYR
ASSAY: off-rate screen of scFv clones (kdis), Octet BLI
Record the value in s⁻¹, omitting the unit from your answer.

*Q* Returns the measured koff for the input binder. Input: suPAR_DB04_F10 (scFv, V domains shown, scFv clone from phage display) VH: QVQLVQSGAEVKKPGASVKVSCKASGYTFTDYYMHWVRQAPGQGLEWMGWIDHSGGNTIYAQKFQGRVTMTRDTSTSTVYMELSSLRSEDTAVYYCARGYDVDWFVYWGQGTLVTVSS VL: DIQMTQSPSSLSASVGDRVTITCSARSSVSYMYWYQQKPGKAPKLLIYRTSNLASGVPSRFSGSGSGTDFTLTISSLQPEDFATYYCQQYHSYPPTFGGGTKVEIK
*A* 0.000274

*Q* Returns the measured koff for the input binder. Input: suPAR_DB04_E08 (scFv, V domains shown, scFv clone from phage display) VH: QVQLVQSGAEVKKPGASVKVSCKASGYTFTGYYMHWVRQAPGQGLEWMGWIDHENGNTSYAQKFQGRVTMTRDTSTSTVYMELSSLRSEDTAVYYCARGYDVDWFVYWGQGTLVTVSS VL: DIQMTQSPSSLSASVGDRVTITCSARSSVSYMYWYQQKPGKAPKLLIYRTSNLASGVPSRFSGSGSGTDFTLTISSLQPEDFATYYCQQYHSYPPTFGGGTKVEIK
*A* 0.000149

// provenance: patent US20250215104A1
